- assay notes: TLR3 IRF3 reporter activation blockers – cell-based, poly I:C stimulus, luciferase, 10K MLSCN set, primary screen (AID 602277)
- cond: HEK293-TLR3 RL24 IRF3 luciferase reporter, at 10 µM
The source made the active and inactive calls.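 The calls were made as follows: active = inhibition of the reporter signal at or above 50%; inactive = inhibition below 50%.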
Just give me one of these, please: active, inactive

Data request: What classification did CCc1ccccc1N1C(=O)C2CC(C)=C(C)CC2C1=O (centres undefined) end up with in this test?
Data returned: inactive

Data request: Please indicate how the test categorized CCCCc1cc(=O)oc2c(CN3CCCC3)c(O)c(Cl)cc12 .
Data returned: inactive

Data request: What did this assay record as the result for COC(=O)C1=CN(C(C)C)C=C(C(=O)OC)C1c1cc2c(cc1Br)OCO2 ?
Data returned: inactive

Data request: State the result this test recorded for COCCNC(=O)C(c1ccc(C)o1)N(Cc1cccs1)C(=O)c1snc(C(N)=O)c1N (centres undefined) .
Data returned: inactive

Data request: Returns: the outcome recorded for CCOc1cccc(-c2nnc3n2N=C(c2cc(OC)ccc2OC)CS3)c1 in this assay.
Data returned: active

Data request: I'd appreciate the recorded outcome for CCOc1ccccc1NC(=O)N1C2CCCC1CC(NC(=O)C1CC1)C2 (centres undefined) from this test.
Data returned: inactive

Data request: Kindly provide the recorded test outcome for the following compound: Cc1ccc(C)n1-c1ccc(N2CCOCC2)cc1
Data returned: inactive

Data request: Which outcome was entered for the compound CCOC(=O)N1CCN(C(=O)c2cnn(-c3ccccc3)c2NC(=O)c2ccccc2F)CC1 in this test?
Data returned: inactive

Data request: What did this assay record as the result for O=S(=O)(NCC1CCCO1)c1cccc(C(F)(F)F)c1 (centres undefined) ?
Data returned: inactive

Data request: # lookup: test call for Cc1cccc(NC(=O)CC2CCC2)c1
Data returned: inactive

Data request: Please let me know the test result on file for O=C(O)CCNc1ccc2c(c1)OCCO2 .
Data returned: inactive

Data request: Each compound tested received a call. Report the one for O=C(Nc1ccc(Cc2ccncc2)cc1)C1CC1 .
Data returned: inactive

Data request: // return assay outcome for Cn1c(=O)cc(OCC(=O)NCCCN2CCN(Cc3ccccc3)CC2)c2ccccc21
Data returned: inactive

Data request: Assay result, entry O=C(CN(Cc1ccc(F)cc1)C(=O)Cn1nnc2ccccc21)NCC1CCCO1 (centres undefined) — outcome?
Data returned: inactive
